# methodNotes: Double-blind placebo controlled single dose pharmacokinetic study of cariprazine capsules in healthy male volunteers (Example 4)
# Format: in vivo, human
# conditionContext: male, human, plasma, oral; mean; single dose 2 mg capsules, fasted; Group I Period 2; read-out: AUC0-168
measurementType: AUC(0-t)

May I ask what AUC(0-t) has been recorded for CN(C)C(=O)N[C@H]1CC[C@H](CCN2CCN(c3cccc(Cl)c3Cl)CC2)CC1 ? 95.3 ng·h/mL

====

# methodNotes: Double-blind placebo controlled single dose pharmacokinetic study of cariprazine capsules in healthy male volunteers (Example 4)
# Type: in vivo, human
# conditionContext: male, human, plasma, oral; mean; single dose 0.5 mg capsules, fasted; Group III Period 1; read-out: AUC0-168
# Method: The pharmacokinetic parameters described herein include area under the plasma concentration-time curve (AUC0-t and AUC0-∞), maximum plasma concentration (Cmax), time of maximum plasma concentration (Tmax) and terminal elimination half-life (T1/2). The time of maximum concentration, Tmax, is determined as the time corresponding to Cmax. […]
measurementType: AUC(0-t) (ng·h/mL)
Reply with just the number (in ng·h/mL).

May I ask what AUC(0-t) has been recorded for CN(C)C(=O)N[C@H]1CC[C@H](CCN2CCN(c3cccc(Cl)c3Cl)CC2)CC1 [cariprazine] ? 14.1

====

# methodNotes: Linear calculated pharmacokinetic parameters (Table 33)
# Format: in vivo
# conditionContext: human, plasma, po, dose 7.5 mg
measurementType: Cmax (ng/mL)
Reply with just the number (in ng/mL).

May I ask what Cmax has been recorded for CN(C)C(=O)N[C@H]1CC[C@H](CCN2CCN(c3cccc(Cl)c3Cl)CC2)CC1 ? 9.5

====

# methodNotes: Multiple dose study in healthy male volunteers (Example 6)
# Format: in vivo
# conditionContext: human, plasma, Group III: 2 doses of 0.5 mg followed by 12 doses of 1.0 mg every day, fasted, read-out: tmax
measurementType: Tmax (h)
Reply with just the number (in h).

May I ask what Tmax has been recorded for CN(C)C(=O)N[C@H]1CC[C@H](CCN2CCN(c3cccc(Cl)c3Cl)CC2)CC1 ? 4

====

# methodNotes: Linear calculated pharmacokinetic parameters (Table 33)
# Assay type: in vivo
# conditionContext: human, plasma, po, dose 12.5 mg
measurementType: Cmax (ng/mL)
Reply with just the number (in ng/mL).

May I ask what Cmax has been recorded for CN(C)C(=O)N[C@H]1CC[C@H](CCN2CCN(c3cccc(Cl)c3Cl)CC2)CC1 [cariprazine] ? 15.8

====

# methodNotes: Linear calculated pharmacokinetic parameters (Table 33)
# Type: in vivo
# conditionContext: human, plasma, po, dose 3 mg
measurementType: Cmax
Field note: include the unit after the figure.

May I ask what Cmax has been recorded for CN(C)C(=O)N[C@H]1CC[C@H](CCN2CCN(c3cccc(Cl)c3Cl)CC2)CC1 ? 3.8 ng/mL

====

# methodNotes: Double-blind placebo controlled single dose pharmacokinetic study of cariprazine capsules in healthy male volunteers (Example 4)
# Format: in vivo, human
# conditionContext: male, human, plasma, oral; mean; single dose 1.5 mg capsules, fasted; Group II Period 2
# Method: The pharmacokinetic parameters described herein include area under the plasma concentration-time curve (AUC0-t and AUC0-∞), maximum plasma concentration (Cmax), time of maximum plasma concentration (Tmax) and terminal elimination half-life (T1/2). The time of maximum concentration, Tmax, is determined as the time corresponding to Cmax. […]
measurementType: Tmax (h)
Reply with just the number (in h).

May I ask what Tmax has been recorded for CN(C)C(=O)N[C@H]1CC[C@H](CCN2CCN(c3cccc(Cl)c3Cl)CC2)CC1 ? 3
